src = the nanobody polyreactivity screen of Harvey et al. (2022)

assay: yeast display, Sf9 membrane polyspecificity reagent, FACS + sequencing; frameworks hold sequencing errors
PROPERTY_MEASURED: polyreactivity (PSR sort gate)

1. QVQLVESGGGLVQAGGSLRLSCAASGITFTVYAMGWYRQARGKERELVAAINSGSSTNYADSVKGRFTISRDNAKNTVFLQMNSLKPEDTAVYYCAASYRKLPDKKRYGYWGQGTQVTVSS | high polyreactivity
2. QVQLVESGGGLVQAGGSLRLSCAASGSTIKTYATMGWYRQAPGKERELVSAITSGSSTNYADSVKGRFTISRDNAKNNVYLQMNSLKPEATAVYYCAADDYYNWYLGEPGDYWGQGTQVTVSS | low polyreactivity
3. QVQLVESGGGLVQAGGSLRLSCAASGRIFSYYAMGWYRQAPWKERELVAAISSSGGSTYYADSVKGRFTISRDNAKNTVYLQMNSLKPEDTEVYYCAKLLYGFGRYGYWGQGTQVTVSS | high polyreactivity
4. QVQLVESGGGLVQAGGSLRLICAASGSIFDTYAMGWYRQAPGKERELLATISWSGDSTYYADSVKGRFTISRDNAKNTVYLQMNCLKPEDTAVYYCAADVGQVSDHEDYDYWGQGTQVTVSS | low polyreactivity
5. QVQLVESGGGLVQAGGILRLICAASGLTFYRYAMGWYRQAPGKERELVAAINSRGSTYADSVKGRFTISRDNAKNTVYFQMNSLKPEDSAVYYCAARGRYRLYGYWGQVTQVTVSS | high polyreactivity
6. QVQLVESGGGLVQAGGSLRLSCAASGRIFGGNAMGWYRQAPGKERELVAAITSGGTTNYADSVKGRFTISRDNAKNTVYLQMNSLKPEDTAVYYCAADFKPLYYDEYDYWGQGTQVTVSS | low polyreactivity
7. QVQLVESGGGLVQAGGSLRLSCSASGLIFSTYAMGWYRQAPGKVRELVAAISGTGSTYYADSVKGRFTISRDNAKNTVYLQMNRLKPEDTSVYYCAAGATLWLLGLKMGYWGQGTQVTVSS | low polyreactivity
8. QVQLVESGGGLVQAGGSLRLSCAASGRIFYYYGMGWYRQAPGKERELVAAISNGGRTYYADSVKGRFTISRDNAKNTVYLQMTSLKPEDTAVYYCAALTRGRGGYDYWGQGTQVTVSS | high polyreactivity
9. QVQLEDSGGGLVQAGGSLRLSCAASGIIFPDYAMGWYRQAPGKQRELVADISFSAGSTYYADSVKGRFTISRDNAKNTVYLQMNSLKPEDTAVYYCNARPFLTVLYLFYGNNYDYWGQGTQVTVSS | low polyreactivity
10. QVQLVESGGGLVQAGGSLRLSCAASGRTFRRYAMGWYRQAPGKERELVAAISRNGGSTYYADSVKGRFTISRDNAKNTVYLQMNSLKPEDTAVYYCNAVTYGSYYYWGQGTQVTVSS | high polyreactivity
11. QVQLVESGGGLVQAGGSLRLSCAASGRIFPVYAMGWYRQAPGKERELVAAIDYSDGSTYYADSVKGRFTISRDNAKNTVYLQMNSLKPEDTAVYYCAADYDAIYLWWGYDYWGQGTQVTVSS | low polyreactivity
12. QVQLVESGGGLVQAGGSLRLSCAASGFIFGTYAMGWYRQAPGKERELVAAITGSGGDTYYADSVKGRFTISRDNAKNTVYLQMNSLKPEDTAVYYCAAVRPPTPSRRREDYWGQGTQVTVSS | low polyreactivity
13. QVQLVESGGGLVQAGGSLRLSCADSGGTFGNTAMGLYRQAHGKEMELVAAINRSDGGTYYADSEKCRFTISRDNAKNTVYLQMNSLKPEDTAVYYCNADDFYYDEPYDFWGQGTQVTVSS | low polyreactivity
14. QVQLVESGGGLVQAGGSLRLSCAASGFTFIYYAMGWYRQAPGKERELVAAISTSGGRTYYADSVKGRFTISRDNAKNTVYLQMNCLKPEYTAVYYCAADGHYRYTSRYGLIVRYDYWGQGTQVTVSS | high polyreactivity
15. QVQLVESGGGLVQAGGSLRLSCDASGRIFYNYAMGWYRQAPGTERELVAAISGSGGSTYYADSVKGRFTISRDNAKNTVYLQMNSLKPEDTAVYDCSTFGPQYYSRNFDYWGQGTLVTVSS | low polyreactivity
16. QVQLVESGGGLDQARGSLRLSCAASAPTFNSNAMGWYRQAPGKERDLVADINGGGSTYYADSVKGRFTISRDNAKNTVYLQMNSLKPEDTAVYYCAKCYTWYVWYPHGYWGQGTQVTVSS | low polyreactivity
17. QVQLVESGGGLVQAGGSLRLSCAASGITFDYYAMGWYRQAPGKERELVASISSDSSTYYADSVKGRFTISRDNAKNTVYLQMNSLKPEDTAVYYCNAGDSEYTYYGYYAFDYWGQGSQVTVSS | low polyreactivity
18. QVQLVESGGGLVQAGGSLRLSCAASGFTFSLYAMGWYRQAPGKERELVASIDSDGVSTYYADSVKGRFTISRDNAKNTVYLQMNSLKPEDTAVYYCAADLWWGYISGPVRGRGYYWGQGTQVTVSS | low polyreactivity
19. QVQLVESWGGLVQAGGSLRLSCAASGFTFFYYDMGWYRQAPGKERQLVAAITWRGGRTYYADSVKGRFTISRDNAKNTVYLQMNSLKPEDTAVYYCNAYWGYAKVGQFDYWGQGTQVTVSS | high polyreactivity
20. QVQLVESGGGLVQAGGSLRLSCAASGFTFSSNAMGWYRQAPGKEREFVAAISFNSTSTYYADSVKGRFKISRDNAKNTVYLQMNSLKPEDTAVYYCAADVPRVQSEPEYDYWGQGTQVTVSS | low polyreactivity
21. QDQLVESGGGLVQAGGSLRLSCAASGFIFYDNAMGWYRQAPGKERELVAAISAIGGSTYYADSVKGRFTISRDNAKNTVYLQMNSLKPEDTAVYYCAVPEILDPKYQNDYWGQGTQVTVSS | low polyreactivity
